The measurements presented in this section are drawn from ChEMBL document CHEMBL1201862.

tested on: UO-31; assay: NCI tumour cell line growth inhibition, 48 h
Activity calls are given as the source filed them. Rule as the data show it: active = GI50 up to about 1.1 µM and inactive = higher.
Catalogue of GI50 readings, one per entry.

| compound | target_or_system | GI50 |
| --- | --- | --- |
| O=[N+]([O-])c1cc(C(F)(F)F)cc2n[se]nc12 | UO-31 | 5.53 µM (inactive) |
| COC(CO[Si](C)(C)N[Si](C)(C)OCC(OC)c1ccccc1)c1ccccc1 (stereo unspecified) | UO-31 | > 100 µM (inactive) |
| O=C(O)CN(CC(=O)O)c1ccccc1 | UO-31 | > 100 µM (inactive) |
| Cc1ccc(NC(=O)CC/C(CC(=O)C(C)(C)C)=N\NC(=O)C[n+]2ccccc2)cc1C | UO-31 | > 100 µM (inactive) |
| Nc1nc(Sc2ccc([N+](=O)[O-])cn2)c2nc[nH]c2n1 | UO-31 | 3.99 µM (inactive) |
| O=C1C(CN2CCOCC2)CCCC1CN1CCOCC1 (stereo unspecified) | UO-31 | 9.73 µM (inactive) |
| Cc1ccc(S(=O)(=O)N/N=C2\CCCCC23CCC(=O)NC3)cc1 (stereo unspecified) | UO-31 | > 100 µM (inactive) |
| COc1cc(C2SCC(=O)N2c2ccc(Oc3ccc(Cl)cc3)c(Cl)c2)cc(OC)c1OC (stereo unspecified) | UO-31 | 17.6 µM (inactive) |
| CCN(CC)CC(C(=O)Nc1c(C)cccc1C)/C(C)=N\NC(=O)c1ccncc1 (stereo unspecified) | UO-31 | > 100 µM (inactive) |
| Cc1ccc(S(=O)(=O)NC(=N)N(C)N=O)cc1 | UO-31 | > 100 µM (inactive) |
| O=C1c2ccccc2C(=O)c2c(O)c(NCCCNCCO)cc(O)c21 | UO-31 | 5.87 µM (inactive) |
